System: Wistar rats
Assay: Sleep effects: EEG, EMG and behavioural indices of alertness by radiotelemetry
Format: in vivo
Conditions: 100 mg/kg po; effects analyzed over 12 hours; compared to vehicle controls
Property: effect on home cage activity (%)
Answers are plain numbers, in %.

The examples below pair each entry with its known result.
Incoming: Look up effect on home cage activity for this compound: COc1cc(C(=O)N2CCC[C@H]2c2noc(-c3ccccc3OC(F)(F)F)n2)c(-n2nccn2)cc1C
Outgoing: −41.4

Incoming: Follow-up entry: Cc1cc(C(=O)N2CCC[C@H]2c2nc(-c3cccc(Cl)c3C)no2)c(-n2nccn2)cc1C
Outgoing: −20.3

Incoming: Param item: COc1cc(C(=O)N2CCC[C@H]2c2nc(-c3ccccc3OC(F)(F)F)no2)c(-n2nccn2)cc1C
Outgoing: −26.8

Now for another entry.
Incoming: Bench note: what effect on home cage activity did Cc1ccc(C(=O)N2CCC[C@H]2c2nnc(-c3ccccc3OC(F)(F)F)[nH]2)c(-n2nccn2)c1 show?
Outgoing: −47.1

###

Biological target: human orexin-2 receptor (Homo sapiens (Human), UniProt O43614)
Sequence (O43614 whole entry): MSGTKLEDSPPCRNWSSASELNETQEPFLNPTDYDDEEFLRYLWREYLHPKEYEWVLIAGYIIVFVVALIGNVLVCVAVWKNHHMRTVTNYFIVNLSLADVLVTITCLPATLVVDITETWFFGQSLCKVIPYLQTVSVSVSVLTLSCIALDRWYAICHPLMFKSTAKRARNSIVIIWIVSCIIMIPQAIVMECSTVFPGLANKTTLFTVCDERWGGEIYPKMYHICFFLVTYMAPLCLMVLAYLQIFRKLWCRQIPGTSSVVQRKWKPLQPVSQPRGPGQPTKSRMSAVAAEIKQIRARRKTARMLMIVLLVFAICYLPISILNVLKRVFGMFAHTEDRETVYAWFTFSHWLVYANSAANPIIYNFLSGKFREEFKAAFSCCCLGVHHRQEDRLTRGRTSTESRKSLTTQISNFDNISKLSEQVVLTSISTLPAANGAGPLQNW
Experiment: Intracellular calcium measurement (FLIPR), CHO cells expressing human orexin-2 receptor, 3 nM orexin-A
Format: cell-based
Conditions: CHO cells expressing human orexin-2 receptor, FLIPR, 3 nM orexin-A; geometric mean if determined several times; read-out: IC50 OX2
Property: pIC50
Numbers only, as −log10 of the molar value.

The examples below pair each entry with its known result.
Incoming: Any idea what its pIC50 is? The molecule is Cc1ccc(-n2nccn2)c(C(=O)N2CCC[C@H]2c2nc(-c3cccc(OC(F)(F)F)c3)no2)c1
Outgoing: 7.49

Incoming: Continue with Cc1ccc(-c2ccccc2)c(C(=O)N2CCC[C@@]2(C)c2nnc(-c3ccccc3OC(F)(F)F)[nH]2)c1
Outgoing: 7.19

Incoming: Param item: COc1cc(C)cc(-c2nc([C@@H]3CCCN3C(=O)c3ccc(Cl)cc3-n3nccn3)no2)c1
Outgoing: 7.60

Incoming: Please do the same for COc1c(F)cccc1-c1noc([C@@H]2CCCN2C(=O)c2cc(C)c(C)cc2-n2nccn2)n1 as well.
Outgoing: 8.70

For every record below, what is its pIC50?
1. COc1ccc(C)cc1-c1nc([C@@H]2CCCN2C(=O)c2cc(Cl)ccc2-n2nccn2)no1
2. Cc1ccc(-n2nccn2)c(C(=O)N2CCC[C@H]2c2nc(-c3ccccc3OC(F)(F)F)no2)n1
3. CCOc1ccccc1-c1noc([C@@H]2CCCN2C(=O)c2cc(OC)ccc2-n2nccn2)n1
4. COCc1ccccc1-c1noc([C@@H]2CCCN2C(=O)c2cc(C)ccc2-n2nccn2)n1
5. Cc1c(Cl)cccc1-c1noc([C@@H]2CCCN2C(=O)c2cccc(F)c2-c2ccn[nH]2)n1
6. N#Cc1ccc(-n2nccn2)c(C(=O)N2CCC[C@H]2c2nc(-c3ccccc3OC(F)(F)F)no2)c1
7. Cc1c(Cl)cccc1-c1noc([C@@H]2CCCN2C(=O)c2ccccc2-c2ccccc2)n1
8. COc1ccc(-n2cccn2)c(C(=O)N2CCC[C@H]2c2nc(-c3ccccc3OC(F)(F)F)no2)c1

Outgoing:
1. 7.68
2. 7.15
3. 8.05
4. 7.85
5. 8.30
6. 6.79
7. 7.51
8. 7.14

Hello, I would appreciate it if you could give pIC50 for each entry below.
1. Cc1ccc(-n2nccn2)c(C(=O)N2CCC[C@H]2c2noc(-c3cc(C)ccc3C)n2)c1
2. CCOc1ncccc1-c1noc([C@@H]2CCCN2C(=O)c2ccc(C(F)(F)F)cc2-n2nccn2)n1
3. COc1ccccc1-c1nnc([C@@H]2CCCN2C(=O)c2ccc(C)cc2-n2nccn2)[nH]1

Outgoing:
1. 8.22
2. 6.92
3. 6.90

###

Molecular target: human orexin-2 receptor (Homo sapiens (Human), UniProt O43614)
Assay: Intracellular calcium measurement (FLIPR), CHO cells expressing human orexin-2 receptor, 3 nM orexin-A
Format: cell-based
Details: CHO cells expressing human orexin-2 receptor, FLIPR, 3 nM orexin-A; geometric mean if determined several times; read-out: IC50 OX2
Field: pIC50. Provide a value for each of the compounds that follow.
Numbers only, as −log10 of the molar value.

// solved cases for pIC50 follow
Incoming: API: value(readout=pIC50, system=human orexin-2 receptor (Homo sapiens (Human), UniProt O43614)) for record Cc1ccc(C(=O)N2CCC[C@H]2c2nc(-c3ccccc3Cl)no2)c(-n2nccn2)c1
Outgoing: 6.73

Incoming: And CCOc1c(F)cccc1-c1noc([C@@H]2CCCN2C(=O)c2ccc(C)cc2-n2nccn2)n1 ?
Outgoing: 7.43

Incoming: Record: COc1cc(C(=O)N2CCC[C@H]2c2nnc(-c3ccccc3OC)[nH]2)c(-n2nccn2)cc1C
Outgoing: 7.46

Dear reader, for each entry below, please note its pIC50.
1. Cc1ccc(-n2nccn2)c(C(=O)N2CCC[C@H]2c2nc(-c3cc(C)nc(C)c3)no2)c1
2. CCOc1c(F)cccc1-c1nc([C@@H]2CCCN2C(=O)c2cc(C)c(C)cc2-n2nccn2)no1
3. COc1cc(C(=O)N2CCC[C@H]2c2nc(-c3cccc(Cl)c3C)no2)c(-n2nccn2)cc1OC
4. COc1ccc2[nH]cc(-c3noc([C@@H]4CCCN4C(=O)c4cc(C)ccc4-n4nccn4)n3)c2c1
5. COc1ccc(C)cc1-c1nc([C@@H]2CCCN2C(=O)c2ccc(C)cc2-n2nccn2)no1
6. Cc1ccc(-n2nccn2)c(C(=O)N2CCC[C@H]2c2nc(-c3ccc(F)c(F)c3)no2)c1
7. O=C(c1ccccc1-n1nccn1)N1CCC[C@H]1c1nc(-c2ccccc2OC(F)F)no1

Outgoing:
1. 6.43
2. 9.00
3. 7.44
4. 6.97
5. 7.46
6. 6.75
7. 7.12

Field: pIC50. Fill in for each record below.
1. O=C(c1ncsc1-c1ccccc1)N1CCC[C@H]1c1nnc(-c2ccccc2OC(F)(F)F)[nH]1
2. CCCOc1ccccc1-c1nnc([C@@H]2CCCN2C(=O)c2cc(C)ccc2-n2nccn2)[nH]1

Outgoing:
1. 5.75
2. 6.19

Batch of 3 compounds: report pIC50 for each.
1. Cc1ccc(-n2nccn2)c(C(=O)N2CCC[C@H]2c2cn(-c3ccccc3)nn2)c1
2. Cc1ccc(-n2nccn2)c(C(=O)N2CCC[C@H]2c2nc(-c3cccc4cc[nH]c34)no2)c1
3. Cc1c(F)cccc1-c1noc([C@@H]2CCCN2C(=O)c2cccc(F)c2-c2ccn[nH]2)n1

Outgoing:
1: 5.67; 2: 8.05; 3: 8.30

###

Molecular target: orexin-1 (Homo sapiens (Human), UniProt O43613)
Sequence (O43613 whole entry): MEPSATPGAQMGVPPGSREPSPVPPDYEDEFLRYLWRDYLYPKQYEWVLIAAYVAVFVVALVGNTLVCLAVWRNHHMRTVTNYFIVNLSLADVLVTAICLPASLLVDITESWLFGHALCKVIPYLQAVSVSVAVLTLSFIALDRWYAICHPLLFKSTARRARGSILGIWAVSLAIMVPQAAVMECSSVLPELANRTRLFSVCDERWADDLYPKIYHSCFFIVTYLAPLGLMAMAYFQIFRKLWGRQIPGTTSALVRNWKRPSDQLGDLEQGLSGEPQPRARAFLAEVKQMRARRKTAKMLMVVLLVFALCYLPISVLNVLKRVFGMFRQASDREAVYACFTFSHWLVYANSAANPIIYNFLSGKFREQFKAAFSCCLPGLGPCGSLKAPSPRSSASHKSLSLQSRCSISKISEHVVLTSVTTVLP
Assay: Intracellular calcium measurement (FLIPR), CHO cells expressing human orexin-1 receptor, 3 nM orexin-A
Format: cell-based
Conditions: CHO cells expressing human orexin-1 receptor, FLIPR, 3 nM orexin-A; geometric mean if determined several times; read-out: IC50 OX1
Lab note: cut-off is 80 nM. Strictly less in IC50 is Yes. Exactly 80 nM or more is No.

Example entries and their recorded answers appear below.
Incoming: Dear reviewer, please state whether Cc1cccc(-c2nc([C@@H]3CCCN3C(=O)c3cc(C)ccc3-n3nccn3)no2)c1 [compound 305] has IC50 strictly beneath 80 nM.
Outgoing: No

Incoming: CCOc1ncccc1-c1noc([C@@H]2CCCN2C(=O)c2cc(OC)c(C)cc2-n2nccn2)n1 [compound 215] ?
Outgoing: Yes

Incoming: Entry to check: CCOc1ccccc1-c1noc([C@@H]2CCCN2C(=O)c2cc(Cl)ccc2-n2nccn2)n1 [compound 255]
Outgoing: Yes

Further cases:
Incoming: Quick check: IC50 of Cc1ccc(-n2nccn2)c(C(=O)N2CCC[C@H]2c2nc(-c3cc(C)nc(C)c3)no2)c1 [compound 65] under 80 nM?
Outgoing: No

Incoming: Input Cc1nc(C(=O)N2CCC[C@H]2c2nnc(-c3ccccc3OC(F)(F)F)o2)c(-c2ccccc2F)s1 [compound 444]
Outgoing: No

Incoming: What about COc1cc(C(=O)N2CCC[C@H]2c2noc(-c3cccc(F)c3OC)n2)c(-n2nccn2)cc1Cl [compound 368] ?
Outgoing: Yes

Incoming: Cool, now COc1cc(C(=O)N2CCC[C@H]2c2noc(-c3cccc(F)c3C)n2)c(-n2nccn2)cc1F [compound 372]
Outgoing: No

###

Target: orexin-1 (Homo sapiens (Human), UniProt O43613)
Assay: Intracellular calcium measurement (FLIPR), CHO cells expressing human orexin-1 receptor, 3 nM orexin-A
Type: cell-based
Conditions: CHO cells expressing human orexin-1 receptor, FLIPR, 3 nM orexin-A; geometric mean if determined several times; read-out: IC50 OX1
Property: IC50
Respond with a number, then the unit of measure.

Incoming: Which value of IC50 has been reported for CCOc1c(F)cccc1-c1nc([C@@H]2CCCN2C(=O)c2cc(Cl)c(C)cc2-n2nccn2)no1 in the records?
Outgoing: 5 nM

Incoming: // same read-out, input: C[C@@]1(c2nnc(-c3ccccc3OC(F)(F)F)[nH]2)CCCN1C(=O)c1ccc(Cl)cc1-n1nccn1
Outgoing: 5 nM

Incoming: Entry to check: CCOc1c(F)cccc1-c1nc([C@@H]2CCCN2C(=O)c2cc(C)ccc2-n2nccn2)no1
Outgoing: 11 nM

Read the next record carefully.
Incoming: Query (compound): Cc1cccc(-c2ocnc2C(=O)N2CCC[C@H]2c2nc(-c3cccc(Cl)c3C)no2)c1 ; field requested: IC50
Outgoing: 120 nM
